- Tested System: full-length human ATR protein (Homo sapiens (Human), UniProt Q13535)
- Sequence (Q13535 other isoform, or with tags, fused parts or gaps): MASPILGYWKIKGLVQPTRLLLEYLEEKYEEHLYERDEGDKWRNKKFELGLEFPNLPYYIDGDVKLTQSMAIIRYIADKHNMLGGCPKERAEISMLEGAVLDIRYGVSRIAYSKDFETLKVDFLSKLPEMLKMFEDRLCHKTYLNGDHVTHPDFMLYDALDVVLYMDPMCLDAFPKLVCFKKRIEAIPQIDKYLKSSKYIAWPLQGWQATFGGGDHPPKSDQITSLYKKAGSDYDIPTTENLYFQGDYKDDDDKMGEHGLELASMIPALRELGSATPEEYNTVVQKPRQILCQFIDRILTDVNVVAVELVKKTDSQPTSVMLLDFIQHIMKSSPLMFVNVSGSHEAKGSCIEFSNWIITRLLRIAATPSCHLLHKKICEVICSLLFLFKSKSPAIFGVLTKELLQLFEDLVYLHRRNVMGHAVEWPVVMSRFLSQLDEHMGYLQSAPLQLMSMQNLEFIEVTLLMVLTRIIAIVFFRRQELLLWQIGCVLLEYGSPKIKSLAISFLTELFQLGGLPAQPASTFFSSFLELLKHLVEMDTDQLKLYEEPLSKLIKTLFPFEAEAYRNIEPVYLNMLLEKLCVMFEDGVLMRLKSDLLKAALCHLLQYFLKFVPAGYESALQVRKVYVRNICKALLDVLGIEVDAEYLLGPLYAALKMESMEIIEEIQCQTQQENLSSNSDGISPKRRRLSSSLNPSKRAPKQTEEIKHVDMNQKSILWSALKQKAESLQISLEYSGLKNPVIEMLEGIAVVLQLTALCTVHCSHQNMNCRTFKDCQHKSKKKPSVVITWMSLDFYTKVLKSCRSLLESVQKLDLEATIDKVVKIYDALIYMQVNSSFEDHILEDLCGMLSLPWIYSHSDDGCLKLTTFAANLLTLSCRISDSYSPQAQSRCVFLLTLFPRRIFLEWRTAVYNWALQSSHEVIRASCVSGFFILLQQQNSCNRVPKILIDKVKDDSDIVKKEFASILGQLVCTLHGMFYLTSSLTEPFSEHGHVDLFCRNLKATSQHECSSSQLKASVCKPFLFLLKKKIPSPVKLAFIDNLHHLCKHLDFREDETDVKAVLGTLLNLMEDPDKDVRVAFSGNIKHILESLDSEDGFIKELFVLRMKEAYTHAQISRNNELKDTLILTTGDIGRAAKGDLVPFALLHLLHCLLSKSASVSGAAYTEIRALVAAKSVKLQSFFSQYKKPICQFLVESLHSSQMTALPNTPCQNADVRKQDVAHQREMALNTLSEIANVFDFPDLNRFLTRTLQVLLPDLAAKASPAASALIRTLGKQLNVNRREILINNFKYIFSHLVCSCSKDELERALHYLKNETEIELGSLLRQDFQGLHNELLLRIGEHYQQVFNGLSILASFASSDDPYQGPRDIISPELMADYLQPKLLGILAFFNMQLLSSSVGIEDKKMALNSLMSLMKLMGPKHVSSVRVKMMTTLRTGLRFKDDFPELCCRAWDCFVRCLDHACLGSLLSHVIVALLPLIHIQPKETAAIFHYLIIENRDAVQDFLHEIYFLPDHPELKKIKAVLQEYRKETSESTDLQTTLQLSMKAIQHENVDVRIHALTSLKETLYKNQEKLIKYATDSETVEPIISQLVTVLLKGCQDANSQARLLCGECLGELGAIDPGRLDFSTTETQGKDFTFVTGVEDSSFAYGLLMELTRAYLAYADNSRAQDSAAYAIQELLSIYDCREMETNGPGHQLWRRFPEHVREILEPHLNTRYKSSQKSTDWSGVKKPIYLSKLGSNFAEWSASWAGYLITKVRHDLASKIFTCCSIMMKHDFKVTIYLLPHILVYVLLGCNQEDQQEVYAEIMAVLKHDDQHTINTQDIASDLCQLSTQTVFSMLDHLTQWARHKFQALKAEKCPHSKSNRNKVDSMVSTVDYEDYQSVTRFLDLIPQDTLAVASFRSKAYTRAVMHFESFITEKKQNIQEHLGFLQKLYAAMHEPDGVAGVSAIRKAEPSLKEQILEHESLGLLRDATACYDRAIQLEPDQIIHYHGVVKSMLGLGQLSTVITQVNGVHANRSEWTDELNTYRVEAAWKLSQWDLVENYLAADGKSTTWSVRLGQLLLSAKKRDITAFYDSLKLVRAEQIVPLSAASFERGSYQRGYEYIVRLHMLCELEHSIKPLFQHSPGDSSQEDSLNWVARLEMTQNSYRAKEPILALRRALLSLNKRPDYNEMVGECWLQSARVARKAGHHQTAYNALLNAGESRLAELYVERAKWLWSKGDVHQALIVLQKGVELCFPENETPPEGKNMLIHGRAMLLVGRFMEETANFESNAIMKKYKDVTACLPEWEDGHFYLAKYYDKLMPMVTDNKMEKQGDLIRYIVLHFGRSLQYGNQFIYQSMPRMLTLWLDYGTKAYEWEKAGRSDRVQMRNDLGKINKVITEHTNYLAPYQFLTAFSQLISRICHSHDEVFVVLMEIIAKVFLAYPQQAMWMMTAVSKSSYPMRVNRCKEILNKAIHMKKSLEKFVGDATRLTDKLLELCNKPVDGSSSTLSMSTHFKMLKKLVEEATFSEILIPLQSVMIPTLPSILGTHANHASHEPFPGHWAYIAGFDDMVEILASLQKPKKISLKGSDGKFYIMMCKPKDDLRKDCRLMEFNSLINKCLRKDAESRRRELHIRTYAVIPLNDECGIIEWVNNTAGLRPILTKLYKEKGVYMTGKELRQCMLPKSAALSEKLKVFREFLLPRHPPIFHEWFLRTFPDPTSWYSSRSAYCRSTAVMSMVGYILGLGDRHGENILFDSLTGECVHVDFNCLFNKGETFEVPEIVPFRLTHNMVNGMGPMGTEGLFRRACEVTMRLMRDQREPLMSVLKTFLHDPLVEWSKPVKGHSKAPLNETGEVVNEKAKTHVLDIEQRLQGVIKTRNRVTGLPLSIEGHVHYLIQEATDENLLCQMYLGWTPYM
- Sequence (Q8WXE1 other isoform, or with tags, fused parts or gaps partner): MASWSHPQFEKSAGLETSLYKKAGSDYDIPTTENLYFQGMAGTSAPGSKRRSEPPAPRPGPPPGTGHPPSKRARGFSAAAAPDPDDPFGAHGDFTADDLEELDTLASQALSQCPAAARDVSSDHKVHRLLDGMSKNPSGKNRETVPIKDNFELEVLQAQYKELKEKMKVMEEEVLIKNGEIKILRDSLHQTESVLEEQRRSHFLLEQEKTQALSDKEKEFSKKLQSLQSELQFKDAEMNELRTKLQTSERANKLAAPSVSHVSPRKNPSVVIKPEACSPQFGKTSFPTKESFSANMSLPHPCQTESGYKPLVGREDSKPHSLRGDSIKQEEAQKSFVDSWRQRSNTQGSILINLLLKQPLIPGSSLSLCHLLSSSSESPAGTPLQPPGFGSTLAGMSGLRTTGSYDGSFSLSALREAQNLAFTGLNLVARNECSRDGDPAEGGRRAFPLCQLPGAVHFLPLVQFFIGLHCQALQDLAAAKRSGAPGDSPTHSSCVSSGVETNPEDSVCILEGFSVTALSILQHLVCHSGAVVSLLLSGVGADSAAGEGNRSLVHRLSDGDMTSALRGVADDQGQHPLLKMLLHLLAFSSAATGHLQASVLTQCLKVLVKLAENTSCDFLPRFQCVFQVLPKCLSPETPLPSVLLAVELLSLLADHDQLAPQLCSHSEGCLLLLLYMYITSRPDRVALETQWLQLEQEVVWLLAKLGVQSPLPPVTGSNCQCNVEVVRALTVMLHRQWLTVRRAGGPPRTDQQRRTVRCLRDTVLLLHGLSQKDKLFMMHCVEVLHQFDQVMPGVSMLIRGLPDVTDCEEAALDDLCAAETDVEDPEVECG
- Assay Name: Binding assay ATR (TR-FRET tracer displacement)
- Condition Details: tracer A, TR-FRET; read-out: ATR binding (tracer A) IC50
Measure Name: IC50 (nM)
Give the value, in units of nM, as a plain number.

Compound: c1cc(-c2nccc3c(N4C[C@@H]5C[C@H]4CO5)cc(N4CCOCC4)nc23)[nH]n1
Tested System: full-length human ATR protein (Homo sapiens (Human), UniProt Q13535)
IC50 / nM: 852

Compound: C[C@@H]1COCCN1c1cc(-c2cnn(C3CC3)c2)c2ccnc(-c3ccn[nH]3)c2n1
Tested System: full-length human ATR protein (Homo sapiens (Human), UniProt Q13535)
IC50 / nM: 44.8

# next compound below
Recorded IC50 (compound C[C@@H]1CN(c2cc(N3CCOCC3)nc3c(-c4ccn[nH]4)nccc23)CCO1 ): 100

----------
- Tested System: full-length human ATR protein (Homo sapiens (Human), UniProt Q13535)
- Assay Name: Binding assay ATR (TR-FRET tracer displacement)
- Condition Details: tracer A, TR-FRET; read-out: ATR binding (tracer A) IC50
Measure Name: IC50 (nM)
Value expressed in nM; do not type the unit.

Compound: CC(C)n1ccc(-c2cc(N3CCOC[C@H]3C)nc3c(-c4ccn[nH]4)nccc23)n1 [Example 263]
Units Of Measure: nM
IC50: 19.3
--
Compound: CCOc1cc(N2CCOCC2)nc2c(-c3cc[nH]n3)nccc12 [Example 43]
Units Of Measure: nM
IC50: 493
--
Compound: Cc1cccc(-c2cc(N3CCOCC3)nc3c(-c4ccn[nH]4)nccc23)c1C [Example 312]
Units Of Measure: nM
IC50: 23.7

Briefly, IC50 measured for C[C@@H]1COCCN1c1cc(-c2ccnc(N3CCOCC3)c2F)c2ccnc(-c3ccn[nH]3)c2n1 [Example 223] : 124

----------
- Tested System: full-length human ATR protein (Homo sapiens (Human))
- Assay Name: Binding assay ATR (TR-FRET tracer displacement)
- Condition Details: tracer A, TR-FRET; read-out: ATR binding (tracer A) IC50
pIC50: −log10 of the molar value.
Returns one of y or n; y when pIC50 is >= 7.

Some solved entries appear below for comparison.
Compound: Cn1cc(-c2cc(N3CCOCC3)nc3c(-c4ccn[nH]4)nccc23)cn1
Tested System: full-length human ATR protein (Homo sapiens (Human))
Group Label: n
--
Compound: c1ccc2sc(-c3cc(N4CCOCC4)nc4c(-c5ccn[nH]5)nccc34)cc2c1
Tested System: full-length human ATR protein (Homo sapiens (Human))
Group Label: n
--
Compound: C[C@@H]1COCCN1c1cc(-c2ccn(CCO)n2)c2ccnc(-c3ccn[nH]3)c2n1
Tested System: full-length human ATR protein (Homo sapiens (Human))
Group Label: y
--
Compound: COc1cc(N2CCOCC2)nc2c(-c3cc[nH]n3)nccc12
Tested System: full-length human ATR protein (Homo sapiens (Human))
Group Label: n
--
Compound: c1c[nH]c(-c2cc(N3CCOCC3)nc3c(-c4ccn[nH]4)nccc23)c1
Tested System: full-length human ATR protein (Homo sapiens (Human))
Group Label: n

Prompt line: Decide: pIC50 of OC1(C(F)(F)F)CN(c2cc(N3CCOCC3)nc3c(-c4ccn[nH]4)nccc23)C1 >= 7?
Response line: n

Prompt line: Does pIC50 meet or surpass 7 for CS(=O)(=O)Cc1cc(N2CCOCC2)nc2c(-c3ccn[nH]3)nccc12 ?
Response line: n

Prompt line: Kindly determine if pIC50 recorded for Cc1nn(C)c(C)c1-c1cc(N2CCOC[C@H]2C)nc2c(-c3ccn[nH]3)nccc12 is above or exactly 7.
Response line: y

Prompt line: Exam item: decide whether the reported pIC50 for Cc1nc(S(C)(=O)=O)ccc1-c1cc(N2CCOC[C@H]2C)nc2c(-c3ccn[nH]3)nccc12 is at least 7.
Response line: y

Prompt line: Test whether the compound CN(C)c1ccccc1-c1cc(N2CCOCC2)nc2c(-c3ccn[nH]3)nccc12 records pIC50 of 7 or higher.
Response line: y

Prompt line: Please indicate if the recorded pIC50 for COc1ncccc1-c1cc(N2CCOCC2)nc2c(-c3ccn[nH]3)nccc12 meets or exceeds 7.
Response line: n

Prompt line: Please indicate if the recorded pIC50 for Oc1ccc(-c2cc(N3CCOCC3)nc3c(-c4ccn[nH]4)nccc23)cn1 [Example 23] meets or exceeds 7.
Response line: n

----------
Below, each entry is listed with its recorded pIC50.
- Tested System: full-length human ATR protein (Homo sapiens (Human), UniProt Q13535)
- Assay Name: Binding assay ATR (TR-FRET tracer displacement)
- Condition Details: tracer B, TR-FRET; read-out: ATR binding (tracer B) IC50
Keep it numeric: pIC50 is minus log10 of the concentration in mol/L.

Field: example entries. Status: answers known.
Molecule: CS(=O)(=O)c1cccc(-c2cc(N3CCOCC3)nc3c(-c4cc[nH]n4)nccc23)c1
pIC50: 6.76
//
Molecule: CC(C)Oc1cc(N2CCOCC2)nc2c(-c3cc[nH]c3)nccc12
pIC50: 6.33
//
Molecule: N#Cc1cc(N2CCOCC2)nc2c(-c3cc[nH]n3)nccc12
pIC50: 6.27
//
Molecule: CSc1cc(N2CCOC[C@H]2C)nc2c(-c3ccn[nH]3)nccc12
pIC50: 7.51
//
Molecule: C[C@@H]1COCCN1c1cc(OCCCNC(=O)OC(C)(C)C)c2ccnc(-c3ccn[nH]3)c2n1
pIC50: 6.89
//
Molecule: CC(C)S(=N)(=O)c1ccc(-c2cc(N3CCOCC3)nc3c(-c4ccn[nH]4)nccc23)cc1 (centres unmarked)
pIC50: 7.12
//
Molecule: COP(=O)(OC)c1ccc(-c2cc(N3CCOCC3)nc3c(-c4ccn[nH]4)nccc23)cc1
pIC50: 6.90
//
Molecule: CCOC(=O)N=S(C)(=O)c1ccc(-c2cc(N3CCOCC3)nc3c(-c4ccn[nH]4)nccc23)cc1 (centres unmarked)
pIC50: 7.62
//
Molecule: C[C@@H]1COCCN1c1cc(S(C)(=O)=O)c2ccnc(-c3ccn[nH]3)c2n1
pIC50: 7.99
//
Molecule: C1=C(c2cc(N3CCOCC3)nc3c(-c4cc[nH]n4)nccc23)CCOC1
pIC50: 7.36

Lab note: CS(=N)(=O)CCCOc1cc(N2CCOCC2)nc2c(-c3ccn[nH]3)nccc12 (centres unmarked) gave pIC50 of 6.27

Recorded result, CCOc1cc(N2CCOCC2)nc2c(-c3cc[nH]n3)nccc12 , pIC50: 6.59

----------
- Tested System: UniProtKB Q13535
- Assay Name: Binding assay ATR (TR-FRET tracer displacement)
- Condition Details: tracer B, TR-FRET; read-out: ATR binding (tracer B) IC50
Measure Name: pIC50
Entry type: numeric. Quantity: pIC50, the -log10 of concentration in molar units.

Would you please look over these solved cases?
Structure Notation: CS(=O)(=O)c1ccc(-c2cc(N3CCOCC3)nc3c(-c4ccn[nH]4)nccc23)cn1
pIC50: 7.41

Structure Notation: C[C@@H]1COCCN1c1cc(OCCNC(=O)OC(C)(C)C)c2ccnc(-c3ccn[nH]3)c2n1
pIC50: 6.49

Structure Notation: CC(C)Oc1cc(N2[C@H](C)COC[C@@H]2C)nc2c(-c3ccn[nH]3)nccc12
pIC50: 6.21

pIC50 for C[C@@H]1COCCN1c1cc(-c2ccccc2)c2ccnc(-c3cc[nH]n3)c2n1 is 7.96

Documented pIC50 of c1ccc(-c2cc(N3CCOCC3)nc3c(-c4cc[nH]n4)nccc23)cc1 : 7.06

Please fill in: pIC50 reported for CC(C)Oc1cc(N2CCOC[C@@H]2C)nc2c(-c3cc[nH]n3)nccc12 = 5.90

CC(C)Oc1cc(N2[C@H](C)COC[C@H]2C)nc2c(-c3ccn[nH]3)nccc12 has a reported pIC50 of 5.90

Record COc1cc(N2CCOCC2)nc2c(-c3cc[nH]n3)nccc12 , field pIC50: 6.49

----------
- Tested System: UniProtKB Q13535
- Assay Name: Binding assay ATR (TR-FRET tracer displacement)
- Condition Details: tracer A, TR-FRET; read-out: ATR binding (tracer A) IC50
Output Y for records whose IC50 is lower than 0.03 µM, N for records at or above 0.03 µM.

Would you please look over these solved cases?
Compound: Oc1ccc(-c2cc(N3CCOCC3)nc3c(-c4ccn[nH]4)nccc23)cc1 [Example 326]
Group Label: N
--
Compound: CS(=O)(=O)N1CCN(c2cc(N3CCOCC3)nc3c(-c4ccn[nH]4)nccc23)CC1 [Example 434]
Group Label: N
--
Compound: Cc1n[nH]cc1-c1cc(N2CCOC[C@H]2C)nc2c(-c3ccn[nH]3)nccc12 [Example 266]
Group Label: Y
--
Compound: C1=CCN(c2cc(N3CCOCC3)nc3c(-c4ccn[nH]4)nccc23)C1 [Example 417]
Group Label: N
--
Compound: Cc1ccsc1-c1cc(N2CCOCC2)nc2c(-c3ccn[nH]3)nccc12 [Example 373]
Group Label: N

Prompt line: IC50 under 0.03 µM? Item: C[C@@H]1CN(c2cc(N3CCOCC3)nc3c(-c4ccn[nH]4)nccc23)C[C@H](C)N1 [Example 179]
Response line: N

Prompt line: Does this compound meet the criterion IC50 < 0.03 µM? C[C@@H]1COCCN1c1cc(OCCCN)c2ccnc(-c3ccn[nH]3)c2n1 [Example 193]
Response line: N

Prompt line: Hello, is IC50 of the following compound strictly smaller than 0.03 µM? C[C@@H]1COCCN1c1cc(-c2cccc(S(C)(=O)=O)c2F)c2ccnc(-c3ccn[nH]3)c2n1 [Example 132]
Response line: Y

Prompt line: Take the compound C[C@@H]1COCCN1c1cc(-c2ccc(Cl)s2)c2ccnc(-c3ccn[nH]3)c2n1 [Example 238] and say whether its IC50 is less than 0.03 µM.
Response line: N

Entry source: patent US9549932B2
